# Tested on: rabbit ear acne model
# Assay notes: Rabbit ear acne model induced by 2% coal tar
# Assay type: in vivo, New Zealand rabbits
# Condition parameters: right ear, n = 10; grade 3: extensive keratinized material, severe expansion of hair follicles
# From the text: The inner side of the right ear of the rabbits was taken as the observation area, the left ear of all rabbits was used as the self-negative control, and 95% alcohol was applied. […]
Assay readout: Histological grading of acne: number of animals graded 3+

Consider the reported Histological grading of acne: number of animals graded 3+ for these compounds:
# Compound, Value observed
data = [
    ("COc1ccc(CCC(=O)N(c2nccc3ccccc23)[C@@H]2CCCNC2)cc1", 0),
    ("CC(=O)Nc1ccc(C(=O)N2CCN(c3ccc(C)cc3)CC2c2ccccc2)cc1 (stereo not shown)", 0),
    ("O=C(c1ccc(-n2nnc3cccnc32)cc1)N(c1ncccc1Cl)[C@@H]1CCCNC1", 0),
]

What the record says about Cc1cc(C(=O)C2=C(O)C(=O)N(CCCN3CCOCC3)C2c2ccncc2)ccc1OCc1ccccc1 (stereo not shown) : Histological grading of acne: number of animals graded 3+ is 0

---

# System: hair follicles / hair growth in depilated C57BL/6 mice
# Assay notes: Hair growth in C57BL/6 mice after rosin/paraffin depilation
# Format: in vivo
# Condition parameters: hair removal area on the back of mice, after hair removal
Marks after values point to notes of the source that are not given here.
In this section, each of the compounds is paired with its reported Skin black-turning time.

# Compound, Value observed
records = [
    ("Cc1cc(C(=O)C2=C(O)C(=O)N(CCCN3CCOCC3)C2c2ccncc2)ccc1OCc1ccccc1 (stereo not drawn)", "5.63* days"),
    ("O=C(c1ccc(-n2nnc3cccnc32)cc1)N(c1ncccc1Cl)[C@@H]1CCCNC1", "5.45* days"),
]

Now turn to the next compound.
What the record says about CC(=O)Nc1ccc(C(=O)N2CCN(c3ccc(C)cc3)CC2c2ccccc2)cc1 (stereo not drawn) : Skin black-turning time is 5.78* days

Entry source: patent US20230346773A1
